tgt: HIV-1 reverse transcriptase (HXB2, group M subtype B) (Human immunodeficiency virus 1, UniProt P04585 SEQ:1-560)
method summary: inhibition; DDDP, K+ buffer
condition summary: tags: expressed in E. coli; hairpin + G4, A2 connector
pIC50: −log10 of the molar value.
measured metric: pIC50

In [3]: df
Out[3]:
                                     binder  measured_metric  result_number
0  CGCCTGATTAGCGATACTCAGGCGAAGGGTGGGTGGGTGGG (ssDNA) [L6]            pIC50           7.89

Cited source: patent US20090305281
